Cited source: ChEMBL document CHEMBL1201862

# maps each entry to its GI50
# Test system: NCI-H522
# EXPERIMENTAL DETAILS: NCI tumour cell line growth inhibition, 48 h
Active and inactive are the calls of the source. Cut-off read from the data, not from the text of the source: active = GI50 up to about 1.1 µM and inactive = higher.
READOUT NAME: GI50

>>> value_observed("CN(C)CCn1c(=O)c2ccc(NCCCN(C)CCCNc3ccc4c(=O)n(CCN(C)C)c(=O)n5c6ccccc6c(=O)c3c45)c3c(=O)c4ccccc4n(c1=O)c23")
"< 0.01 µM (active)"
>>> value_observed("CC(C)CC(=O)NC(Nc1ccc(S(=O)(=O)Nc2ncccn2)cc1)(C(F)(F)F)C(F)(F)F")
"> 100 µM (inactive)"
>>> value_observed("O=C(O)CSC(CC1(c2ccc(Cl)cc2)NC(=O)CS1)c1ccc(Cl)cc1 (stereo unspecified)")
"46.2 µM (inactive)"
>>> value_observed("CC1CC(C(=O)OC2OC(COC3OC(CO)C(OC4OC(C)C(O)C(O)C4O)C(O)C3O)C(O)C(O)C2O)C2CCC3(C)C(=CCC4(C)C3CCC3C(C)(CO)C(O)C(O)CC34C)C2C1C (stereo unspecified)")
"13.7 µM (inactive)"
>>> value_observed("COc1ccc(-c2c(-c3ccccc3)c(C)nc3[nH]c(=S)[nH]c(=S)c23)cc1OC")
"27.1 µM (inactive)"
>>> value_observed("COc1ccc2c(c1)CCCN2CCCCCCCCCCN(CCC(C)C)CCC(C)C")
"2.2 µM (inactive)"
